Target system: T1, APC9806-AA
T1 chain: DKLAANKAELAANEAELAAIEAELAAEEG
Protocol details: two-hybrid library CCmax;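 note: natural log of median RNA to DNA barcode read ratio; higher means stronger binding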
Condition set: mean of both orientations
Observation type: interaction score

>>> test_result("DKLAAEKAKNAALKAEAAALEAENAALEG [APC7524-AA]")
-1.98
>>> test_result("DKNAALKAKNAALKAKAAALKAKLAAIKG [APC5531-AA]")
-1.95
>>> test_result("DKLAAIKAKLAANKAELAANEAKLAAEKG [APC1987-AA]")
-1.87
>>> test_result("DKAAALKAELAANEAELAANEAKLAAIKG [APC3881-AA]")
-1.72

All figures here come from paper PMC10397247.
